tested on: Plasmopara viticola; test: Test D: grape downy mildew control on grape seedlings; type: in vivo; conditions: 250 ppm, 100 = 100% disease control, 0 = no control
# met = Test D disease control rating below 60% (exclusive); not met = Test D disease control rating at/above 60%

# Compound, Class assignment
records = [
    ("COc1ccnc(C(=O)N[C@@H](C)C(=O)OC(C)c2ccc(F)cc2Cc2ccccc2)c1O (single isomer, unassigned) [Compound 23]", "met"),
    ("COc1ccnc(C(=O)N[C@@H](C)C(=O)OC(C)c2ccc(F)cc2Cc2ccc(F)cc2)c1O (single isomer, unassigned) [Compound 41]", "not met"),
    ("COc1ccnc(C(=O)NC(C)C(=O)OC(C)C2CCCCC2)c1O (mixture of isomers) [Compound 126]", "met"),
    ("CCC(OC(=O)[C@H](C)NC(=O)c1nccc(OC)c1OCOC(=O)C(C)C)c1ccc(C2CCCCC2)cc1 (single isomer, unassigned) [Compound 132]", "met"),
    ("COc1ccnc(C(=O)NC(C)C(=O)OC(C)C2CCC(C(C)(C)C)CC2)c1O (mixture of isomers) [Compound 176]", "met"),
    ("COc1ccnc(C(=O)NC(C)C(=O)OC(C)c2cccc3ccccc23)c1O (centres unmarked) [Compound 113]", "not met"),
    ("C#Cc1ccc(C(C)OC(=O)C(C)NC(=O)c2nccc(OC)c2O)cc1 (mixture of isomers) [Compound 78]", "not met"),
    ("COc1ccnc(C(=O)NC(C)C(=O)OC(C)c2ccc(OC3CCCCC3)cc2)c1O (mixture of isomers) [Compound 53]", "met"),
    ("COc1ccnc(C(=O)N[C@@H](C)C(=O)OC(C)c2ccc(-n3ccc(C(F)(F)F)n3)cc2Cc2ccccc2)c1O (some centres unmarked) [Compound 93]", "met"),
    ("COc1ccnc(C(=O)N[C@@H](C)C(=O)OC(C)C2CCCc3ccccc32)c1O (single isomer, unassigned) [Compound 183]", "met"),
    ("COc1ccnc(C(=O)N[C@@H](C)C(=O)OC(C)c2cccc(-c3ccccc3)c2)c1O (single isomer, unassigned) [Compound 4]", "met"),
    ("COc1ccnc(C(=O)N[C@@H](C)C(=O)OC(c2ccc(C3CCCCC3)cc2)C(F)(F)F)c1O (some centres unmarked) [Compound 120]", "met"),
    ("COc1ccnc(C(=O)NC(C)C(=O)OC(C)c2ncc(C(F)(F)F)cc2Cl)c1O (mixture of isomers) [Compound 166]", "met"),
    ("COc1ccnc(C(=O)NC(C)C(=O)OC(C)c2ccc(-n3ccc(C(F)(F)F)n3)cc2-n2ccc(C(F)(F)F)n2)c1OC(C)=O (mixture of isomers) [Compound 90]", "met"),
    ("COc1ccnc(C(=O)NC(C)C(=O)OC(C)c2cccc(-n3ccc(C(F)(F)F)n3)c2)c1OC(C)=O (mixture of isomers) [Compound 27]", "met"),
    ("COc1ccnc(C(=O)N[C@@H](C)C(=O)OC(C)c2ccc(F)cc2Cc2ccccc2)c1OC(C)=O (single isomer, unassigned) [Compound 37]", "met"),
    ("COc1ccnc(C(=O)NC(C)C(=O)OC(C)c2cccc3ccccc23)c1O (centres unmarked) [Compound 114]", "not met"),
    ("COc1ccnc(C(=O)N[C@@H](C)C(=O)OC(C)c2ccc(C(C)(C)C)cc2)c1OC(C)=O (some centres unmarked) [Compound 121]", "met"),
    ("COc1ccnc(C(=O)NC(C)C(=O)OC(C)c2ccc(F)cc2Cc2ccc(F)cc2)c1O (mixture of isomers) [Compound 42]", "not met"),
    ("COc1ccnc(C(=O)NC(C)C(=O)OC(C)C2CCC(C(F)(F)F)CC2)c1O (mixture of isomers) [Compound 179]", "not met"),
    ("CCC(OC(=O)[C@H](C)NC(=O)c1nccc(OC)c1OCOC(C)=O)c1ccc(C2CCCCC2)cc1 (single isomer, unassigned) [Compound 135]", "met"),
    ("COc1ccnc(C(=O)NC(C)C(=O)OC(C)C2CCC(C(C)(C)C)CC2)c1OC(C)=O (mixture of isomers) [Compound 181]", "not met"),
    ("COc1ccnc(C(=O)N[C@@H](C)C(=O)OC(C)c2cccc(OC3CCC(C)(C)CC3)c2)c1O (some centres unmarked) [Compound 138]", "met"),
]

====

system: Plasmopara viticola; test: Test D: grape downy mildew control on grape seedlings; type: in vivo; conditions: 250 ppm, 100 = 100% disease control, 0 = no control

# Molecule, Measured on, Unit of measurement, Test D disease control rating
measured = [
    ("COc1ccnc(C(=O)NC(C)C(=O)OC(C)C2CCC(c3ccccc3)CC2)c1O (mixture of isomers)", "Plasmopara viticola", "%", 74),
    ("COc1ccnc(C(=O)NC(C)C(=O)OC(C)c2ccc(C#C[Si](C)(C)C)cc2)c1O (mixture of isomers)", "Plasmopara viticola", "%", 50),
    ("COc1cccc(C(=O)N[C@@H](C)C(=O)OC(C)c2ccccc2Cc2ccccc2)c1OC(C)=O (single isomer, unassigned)", "Plasmopara viticola", "%", 35),
    ("CCC(OC(=O)[C@H](C)NC(=O)c1nccc(OC)c1OC(C)=O)C1CCCCC1 (single isomer, unassigned) [Compound 169]", "Plasmopara viticola", "%", 17),
    ("CCC(OC(=O)[C@H](C)NC(=O)c1nccc(OC)c1OC(C)=O)c1ccc(C2CCCCC2)cc1 (single isomer, unassigned) [Compound 130]", "Plasmopara viticola", "%", 9),
    ("COc1ccnc(C(=O)NC(C)C(=O)N(C)C(C)c2ccc(C3CCCCC3)cc2)c1O (mixture of isomers)", "Plasmopara viticola", "%", 71),
    ("COc1ccnc(C(=O)NC(C)C(=O)OC(C)c2ccc(C3CCCCC3)cc2)c1OS(C)(=O)=O (mixture of isomers)", "Plasmopara viticola", "%", 7),
    ("COc1ccnc(C(=O)N[C@@H](C)C(=O)OC(C)C2CCCCC2)c1OC(C)=O (single isomer, unassigned)", "Plasmopara viticola", "%", 43),
    ("COc1ccnc(C(=O)NC(C)C(=O)N(C)C(C)c2ccc(C3CCCCC3)cc2)c1OC(C)=O (mixture of isomers)", "Plasmopara viticola", "%", 39),
    ("COc1ccnc(C(=O)N[C@@H](C)C(=O)OC(C)C2CCCc3ccccc32)c1O (single isomer, unassigned) [Compound 184]", "Plasmopara viticola", "%", 64),
    ("COc1ccnc(C(=O)N[C@@H](C)C(=O)OC(C)c2ccc(F)cc2Cc2ccc(F)cc2)c1O (single isomer, unassigned) [Compound 54]", "Plasmopara viticola", "%", 55),
    ("COc1ccnc(C(=O)NC(C)C(=O)OC(C)C2CCC(C(F)(F)F)CC2)c1OC(C)=O (mixture of isomers)", "Plasmopara viticola", "%", 51),
    ("COc1ccnc(C(=O)NC(C)C(=O)OC(C)c2ccc([N+](=O)[O-])cc2)c1OC(C)=O (mixture of isomers)", "Plasmopara viticola", "%", 4),
    ("COc1ccnc(C(=O)N[C@@H](C)C(=O)OC(C)c2ccc(C3CCCCC3)cc2)c1OCOC(C)=O (single isomer, unassigned) [Compound 147]", "Plasmopara viticola", "%", 38),
    ("COc1ccnc(C(=O)N[C@@H](C)C(=O)OC(C)c2ccccc2Oc2ccc(F)cc2)c1OC(C)=O (single isomer, unassigned)", "Plasmopara viticola", "%", 16),
    ("COc1ccnc(C(=O)NC(C)C(=O)OC(C(C)C)C2CCCCC2)c1O (mixture of isomers)", "Plasmopara viticola", "%", 81),
    ("COc1ccnc(C(=O)N[C@@H](C)C(=O)OC(C)c2ccc(C3CCCCC3)cc2)c1OC(=O)c1ccccc1 (stereo partly shown)", "Plasmopara viticola", "%", 4),
    ("COc1ccnc(C(=O)N[C@@H](C)C(=O)OC(C)c2ccc(C3CCCCC3)cc2)c1OCOC(C)=O (single isomer, unassigned) [Compound 146]", "Plasmopara viticola", "%", 31),
    ("CCC(OC(=O)[C@H](C)NC(=O)c1nccc(OC)c1OCOC(=O)C(C)C)C1CCCCC1 (single isomer, unassigned)", "Plasmopara viticola", "%", 32),
    ("COc1ccnc(C(=O)NC(C)C(=O)OC(C)c2ccc(C3CCCCC3)cc2)c1OC(=O)C(C)C (mixture of isomers)", "Plasmopara viticola", "%", 48),
    ("CCOC(=O)c1ccn(-c2ccc(C(C)OC(=O)C(C)NC(=O)c3nccc(OC)c3OC(C)=O)cc2)n1 (mixture of isomers)", "Plasmopara viticola", "%", 4),
    ("COc1ccnc(C(=O)N[C@@H](C)C(=O)OC(C)c2ccccc2Cc2ccc(F)cc2)c1O (single isomer, unassigned)", "Plasmopara viticola", "%", 16),
    ("COc1ccnc(C(=O)N[C@@H](C)C(=O)OC(C)c2ccc(CC3CCCCC3)cc2)c1OC(C)=O (single isomer, unassigned) [Compound 128]", "Plasmopara viticola", "%", 57),
    ("COc1ccnc(C(=O)NC(C)C(=O)OC(C)c2ccccc2Oc2ccc(F)cc2)c1O (mixture of isomers)", "Plasmopara viticola", "%", 52),
    ("COc1ccnc(C(=O)NC(C)C(=O)OC(C)C2CCc3ccccc3O2)c1O (mixture of isomers)", "Plasmopara viticola", "%", 0),
]
